Reference source for all entries: ChEMBL document CHEMBL2163249

Biological target: Cholinesterase (Equus caballus) (UniProt P81908)
Sequence (P81908 whole entry): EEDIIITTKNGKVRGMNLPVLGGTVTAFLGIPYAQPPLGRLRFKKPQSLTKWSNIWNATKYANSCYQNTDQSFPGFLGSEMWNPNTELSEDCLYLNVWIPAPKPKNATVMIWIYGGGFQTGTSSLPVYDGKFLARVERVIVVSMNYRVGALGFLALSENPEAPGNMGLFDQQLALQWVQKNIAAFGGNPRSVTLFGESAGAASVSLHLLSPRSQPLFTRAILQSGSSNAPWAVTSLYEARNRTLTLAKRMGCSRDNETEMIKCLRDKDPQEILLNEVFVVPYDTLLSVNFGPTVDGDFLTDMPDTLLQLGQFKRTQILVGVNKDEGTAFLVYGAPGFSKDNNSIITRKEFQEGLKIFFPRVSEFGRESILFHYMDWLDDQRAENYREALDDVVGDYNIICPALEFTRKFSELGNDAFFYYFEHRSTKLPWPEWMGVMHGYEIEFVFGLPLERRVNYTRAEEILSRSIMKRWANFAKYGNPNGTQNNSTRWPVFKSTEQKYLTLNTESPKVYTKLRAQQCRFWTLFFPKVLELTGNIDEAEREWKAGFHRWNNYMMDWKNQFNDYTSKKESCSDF
Conditions: at 2 mg/mL
Description: Inhibition of horse BChE at 2 mg/ml by Ellman's method
observed-property: inhibition (%)
Give bare numbers, in %.

[[record]]
compound_structure_string = "CS[C@H]1SC[C@H]2C(=O)N(C)[C@@H](C(C)C)C(=O)OC[C@@H](NC(=O)c3cnc4ccccc4n3)C(=O)N[C@@H](C)C(=O)N(C)[C@@H]1C(=O)N(C)[C@@H](C(C)C)C(=O)OC[C@@H](NC(=O)c1cnc3ccccc3n1)C(=O)N[C@@H](C)C(=O)N2C"
measurement_target = "Cholinesterase (Equus caballus) (UniProt P81908)"
observed_property = "inhibition"
endpoint_result = -7.37

[[record]]
compound_structure_string = "O=c1c(O)c(-c2ccc(O)c(O)c2)oc2cc(O)ccc12"
measurement_target = "Cholinesterase (Equus caballus) (UniProt P81908)"
observed_property = "inhibition"
endpoint_result = 2.06


Lab note: each compound below needs its inhibition filled in.
1. C/C=C1/C[C@@H](C)[C@@](C)(O)C(=O)OCC2=CCN3CC[C@@H](OC1=O)[C@@H]23
2. COC1=CC(=O)O[C@@H](/C=C/c2ccc3c(c2)OCO3)C1

19.2
0.15

----------
Target: Cholinesterase (Equus caballus)
Details: at 2 mg/mL
Record form. Attribute: inhibition. Fill in for each entry.
Answers are plain numbers, in %.

Please review the following examples before continuing.
[[record]]
compound_structure_string = "CC(C)=CCC[C@](C)(O)[C@H]1CC[C@]2(C)[C@@H]1CC[C@@H]1[C@@]3(C)CCC(=O)C(C)(C)[C@@H]3CC[C@]12C"
endpoint_result = -2.48

[[record]]
compound_structure_string = "O=c1oc2ccccc2c(O)c1Cc1c(O)c2ccccc2oc1=O"
endpoint_result = 5.48

[[record]]
compound_structure_string = "COc1cc(C(=O)O[C@H]2C/C(C)=C/CC/C(C)=C/[C@H](O)[C@@H]2C(C)C)ccc1O"
endpoint_result = 3.49

[[record]]
compound_structure_string = "C/C=C/C/C=C/CCC(=O)[C@H]1O[C@H]1C(N)=O"
endpoint_result = 3.38

[[record]]
compound_structure_string = "C=C[C@H]1CN2CC[C@H]1C[C@@H]2[C@@H](O)c1ccnc2ccccc12"
endpoint_result = 9.07

[[record]]
compound_structure_string = "COc1cc(O)c(C(=O)/C=C/c2ccccc2)c(OC)c1"
endpoint_result = 4.56

[[record]]
compound_structure_string = "C[C@H]1COC2=C1C(=O)C(=O)c1c2ccc2c1CCCC2(C)C"
endpoint_result = 12.1

[[record]]
compound_structure_string = "C=C[C@](C)(O)CC[C@@H]1[C@@]2(C)CCCC(C)(C)[C@@H]2CC[C@@]1(C)O"
endpoint_result = -2.61

[[record]]
compound_structure_string = "O=C1c2c(O)cc(O)cc2O[C@H](c2ccc(O)c(O)c2)[C@H]1O"
endpoint_result = 0.97

[[record]]
compound_structure_string = "COc1ccc(-c2coc3cc(O)ccc3c2=O)cc1"
endpoint_result = 0.57


Lab note: each molecule below needs its inhibition filled in.
1. C=CCc1ccc(O)c(-c2ccc(O)c(CC=C)c2)c1
2. O=c1c(O)c(-c2ccc(O)c(O)c2)oc2cc(O)cc(O)c12
3. C=C[C@]12CN(C)[C@@H]3[C@H]4CO[C@H](C[C@H]41)[C@]1(C(=O)Nc4ccccc41)[C@@H]32
4. CC[C@H]1CN2CCc3cc(OC)c(OC)cc3[C@@H]2C[C@@H]1C[C@H]1NCCc2cc(O)c(OC)cc21

1. 7.62
2. 6.73
3. 31.1
4. -6.9
